- tested-system: T1, AF9 YEATS domain, His-AF9 (1-138) (human, UniProt P42568 1-138)
- T1 construct: Expressed in E. coli; not shown: His tag
- T1 sequence (looked up): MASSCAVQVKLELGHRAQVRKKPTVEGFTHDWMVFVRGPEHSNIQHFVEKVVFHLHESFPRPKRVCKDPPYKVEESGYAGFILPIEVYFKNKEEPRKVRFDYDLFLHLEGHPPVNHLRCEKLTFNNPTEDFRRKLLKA
- experiment-description: photo-cross-linking competition vs photoaffinity probe, in-gel fluorescence
pIC50: −log10 of the molar value. No end group written: not given here. *: point of attachment. Oxazole(5-CO) = O=C(c1cnco1)*; 2Furoyl = O=C(c1ccco1)*; Cbz = O=C(OCc1ccccc1)*
Everything with pIC50 lower than 5 is 0; everything else, including exactly 5, is 1.

These recorded examples may help you get a feel for the data.
{"binder": "KQTARK(4‑oxazolecarbonyl)STGG-NH2 (also called 4.14) [compound 14 (XL-14)]", "class-name": 1}
{"binder": "KQTARK(Arg)STGG-NH2 (also: Lys6 acylated with group R, shown only as a drawing, also called 4.9) [compound 9 (XL-09)]", "class-name": 1}
{"binder": "KQTARKSTGG-NH2 (not fully specified (residue 6); also: Lys6 acylated with group R, structure drawing only, also called 4.3) [compound 3 (XL-03)]", "class-name": 0}
{"binder": "H-QTARK(2Furoyl)-NH2 (SMILES C[C@H](NC(=O)[C@@H](NC(=O)[C@@H](N)CCC(N)=O)[C@@H](C)O)C(=O)N[C@@H](CCCNC(=N)N)C(=O)N[C@@H](CCCCNC(=O)c1ccco1)C(N)=O, also called 4.7h) [compound 24 (XL-07h)]", "class-name": 1}
{"binder": "Cbz-QTARK(Oxazole(5-CO))-NH2 (also called 4.13a) [compound 27 (XL-13a)]", "class-name": 1}
{"binder": "KQTARKSTGG-NH2 (not fully specified (residue 6); also: Lys6 acylated with group R, structure drawing only, also called 4.4) [compound 4 (XL-04)]", "class-name": 0}
{"binder": "KQTARK(3‑furancarbonyl)STGG-NH2 (also called 4.8) [compound 8 (XL-08)]", "class-name": 1}
{"binder": "KQTARKSTGG-NH2 (not fully specified (residue 6); also: Lys6 acylated with group R, structure drawing only, also called 4.2) [compound 2 (XL-02)]", "class-name": 0}

Now let's try a different one.
Determine whether measured pIC50 meets or exceeds 5 for Cbz-QTARK(2Furoyl)-NH2 (SMILES C[C@H](NC(=O)[C@@H](NC(=O)[C@H](CCC(N)=O)NC(=O)OCc1ccccc1)[C@@H](C)O)C(=O)N[C@@H](CCCNC(=N)N)C(=O)N[C@@H](CCCCNC(=O)c1ccco1)C(N)=O, also called 4.7j) [compound 26 (XL-07j)] 1

Provenance of the data: patent US20210277061A1
